Experiment: Secondary qRT-PCR qHTS assay for selected Zika virus inhibitors
Settings: Vero cells ZIKV infection, NS5 RNA qRT-PCR, 24 h; series mostly up to 32.6 µM
Results filed as inconclusive are left out. The source made the active and inactive calls. Calls follow the shape of the dose curve; as a rule, active = well fitted inhibition curve with a large enough effect; inconclusive = small, poorly fitted or top-dose-only effect; inactive = flat fitted curve, though single readings scatter.
Please answer using one outcome listed in True (active), False (inactive)

Consider the following illustrative entries.
Compound: Cc1ccc([C@@H]2CC=C(C(=O)O)[C@H](c3ccc(C(C)(C)C)cc3)N2S(=O)(=O)c2ccc(C)cc2)cc1
Label value: False

Compound: Nc1ccn([C@@H]2O[C@H](CO)[C@@H](O)C2(F)F)c(=O)n1
Label value: False

Compound: CC(C)c1onc(-c2c(Cl)cccc2Cl)c1COc1ccc(/C=C/c2cccc(C(=O)O)c2)c(Cl)c1
Label value: True

Compound: O=C(O)Cn1nnc(-c2cc(N3CCC(Oc4cc(F)ccc4Br)CC3)no2)n1
Label value: False

Compound: CCOc1ccc(-c2cc(NC(=O)c3c(F)cccc3F)c(C(=O)O)s2)cc1
Label value: False

Compound: CC1(C)CCC(C)(C)c2cc3c(cc21)Sc1ccccc1N=C3c1ccc(C(=O)O)cc1
Label value: False

Compound: O=C(O)c1ccc(S(=O)(=O)N(Cc2ccc(OC(F)(F)F)cc2)c2ncc(C(F)(F)F)cc2Cl)cc1
Label value: False

Compound: CN(CC(=O)N(Cc1ccc(C2CCCCC2)cc1)c1ccc(C(=O)O)cc1)S(=O)(=O)c1c(F)c(F)c(F)c(F)c1F
Label value: True

Exercise: Recorded call for CC(Oc1ccccc1)C(=O)Nc1ccc(C(=O)OCc2cc(=O)n3nc(C4CC4)sc3n2)cc1 (centres undefined) ?
Solution: False

Entry source: PubChem BioAssay AID1347172
